The measured values listed here are drawn from ChEMBL document CHEMBL3797190.

Documented MIC99 across a set of compounds
Test system: Mycobacterium avium
Test: Antimycobacterial activity against Mycobacterium avium CNCTC My 330/88 after 21 days by microdilution method
Format: functional
Settings: CNCTC My 330/88, 504 h

Please review the entries below; each comes with its answer.
Note to self: MIC99 recorded for O=[N+]([O-])c1cc(CSc2nnc(-c3ccc(Cl)cc3)o2)cc([N+](=O)[O-])c1 was > 125 µM

Notebook: O=[N+]([O-])c1cc(CSc2nnc(-c3ccc(Cl)cc3)o2)cc(C(F)(F)F)c1 , MIC99 read as > 500 µM

Item: Cc1ccc(-c2nnc(SCc3cc([N+](=O)[O-])cc(C(F)(F)F)c3)o2)cc1 | MIC99: > 500 µM

Continuing:
For Cc1cc(C)cc(-c2nnc(SCc3cc([N+](=O)[O-])cc([N+](=O)[O-])c3)s2)c1 the compound record lists MIC99 as > 16 µM

Lab note: O=[N+]([O-])c1cc(CSc2nnc(-c3ccccc3Cl)s2)cc([N+](=O)[O-])c1 gave MIC99 of > 16 µM

###

Test system: Mycobacterium avium
Assay: Antimycobacterial activity against Mycobacterium avium CNCTC My 330/88 after 21 days by microdilution method
Format: functional
Conditions: CNCTC My 330/88, 504 h
property label: MIC99

Some compounds with recorded MIC99:
# MIC99 of O=[N+]([O-])c1ccc(CSc2nnc(-c3ccccc3)o2)c([N+](=O)[O-])c1 = > 16 µM

Reported MIC99 for O=[N+]([O-])c1ccc(CSc2nnc(-c3ccc(Cl)cc3)o2)c([N+](=O)[O-])c1 was 16 µM

What the record says about O=[N+]([O-])c1cc(CSc2nnc(-c3ccc(Cl)cc3)s2)cc([N+](=O)[O-])c1 : MIC99 is 16 µM

Others:
Field MIC99 (entry O=[N+]([O-])c1ccc(CSc2nnc(-c3ccccc3)s2)c([N+](=O)[O-])c1 ) reads 32 µM

###

System: Mycobacterium avium
Experiment: Antimycobacterial activity against Mycobacterium avium CNCTC My 330/88 after 14 days by microdilution method
Assay type: functional
Details: CNCTC My 330/88, 336 h
Entries and their measured MIC99 follow.

The recorded MIC99 with Mycobacterium avium for Cc1cc(C)cc(-c2nnc(SCc3cc([N+](=O)[O-])cc([N+](=O)[O-])c3)o2)c1 was > 32 µM

Given the compound O=[N+]([O-])c1cc(CSc2nnc(-c3ccc(Cl)cc3)o2)cc(C(F)(F)F)c1 and test system Mycobacterium avium, the measured MIC99 is > 500 µM

Observed MIC99 on Mycobacterium avium, entry O=[N+]([O-])c1ccc(-c2nnc(SCc3cc([N+](=O)[O-])cc(C(F)(F)F)c3)o2)cc1 , equals > 500 µM

The reported MIC99 value, Mycobacterium avium, for O=[N+]([O-])c1cc(CSc2nnc(-c3ccc(Cl)cc3)o2)cc([N+](=O)[O-])c1 reads > 125 µM

Noted MIC99 for Cc1cc(C)cc(-c2nnc(SCc3cc([N+](=O)[O-])cc([N+](=O)[O-])c3)s2)c1 , tested on Mycobacterium avium: > 16 µM

###

Experiment: Cytotoxicity against MDCK2-MDR1 cells assessed as cell viability at 20 uM after 24 hrs by MTS assay
Type: ADME, cell-based, Canis lupus familiaris, MDCK-II
Settings: dog, read-out: Activity
property label: viability at 24 h, 20 µM

# compound COc1cccc(-c2nnc(SCc3cc([N+](=O)[O-])cc([N+](=O)[O-])c3)o2)c1 ; its viability at 24 h, 20 µM = 105%

// sample O=[N+]([O-])c1ccc(CSc2nnc(-c3ccccc3)o2)c([N+](=O)[O-])c1 , its viability at 24 h, 20 µM was 69.6%

response.value for O=[N+]([O-])c1cc(CSc2nnc(-c3cccc(Cl)c3)o2)cc([N+](=O)[O-])c1 (field: viability at 24 h, 20 µM) = 93.3%

Form field viability at 24 h, 20 µM, entry COc1ccc(-c2nnc(SCc3ccc([N+](=O)[O-])cc3[N+](=O)[O-])o2)cc1 : 87.9%

Lab note: measured viability at 24 h, 20 µM of Cc1ccc(-c2nnc(SCc3cc([N+](=O)[O-])cc([N+](=O)[O-])c3)o2)cc1 was 98%

Short answer for COc1cccc(-c2nnc(SCc3cc([N+](=O)[O-])cc([N+](=O)[O-])c3)s2)c1 : viability at 24 h, 20 µM was 100%

What the record says about COc1ccc(-c2nnc(SCc3cc([N+](=O)[O-])cc([N+](=O)[O-])c3)o2)cc1 : viability at 24 h, 20 µM is 80.6%

---
Form field viability at 24 h, 20 µM, entry COc1ccc(-c2nnc(SCc3cc([N+](=O)[O-])cc([N+](=O)[O-])c3)s2)cc1 : 101%

###

Test system: Mycobacterium avium
Experiment: Antimycobacterial activity against Mycobacterium avium CNCTC My 330/88 after 21 days by microdilution method
Type: functional
Conditions: CNCTC My 330/88, 504 h
Listed next: entries and their corresponding MIC99.
Field format: number, assumed µM, no unit text.

Example entries begin here.
Per the records, this molecule ( COc1ccc(-c2nnc(SCc3cc([N+](=O)[O-])cc([N+](=O)[O-])c3)s2)cc1 ) has MIC99 equal to 16

Field MIC99 (entry COc1cccc(-c2nnc(SCc3cc([N+](=O)[O-])cc([N+](=O)[O-])c3)s2)c1 ) reads 16

Continuing:
Looking up COc1cc(OC)cc(-c2nnc(SCc3cc([N+](=O)[O-])cc([N+](=O)[O-])c3)o2)c1 , I found its MIC99 recorded as 16

The recorded MIC99 for entry Cc1nnc(SCc2cc([N+](=O)[O-])cc([N+](=O)[O-])c2)o1 equals 500

###

Tested on: Mycobacterium kansasii
Experiment: Antimycobacterial activity against Mycobacterium kansasii CNCTC My 235/80 after 7 days by microdilution method
Type: functional
Conditions: CNCTC My 235/80, 168 h
Here the recorded MIC99 is given for each entry.

Lab entry: Mycobacterium kansasii assay, compound O=[N+]([O-])c1ccc(-c2nnc(SCc3cc([N+](=O)[O-])cc(C(F)(F)F)c3)s2)cc1 , MIC99 = > 32 µM

I looked up NNC(=O)c1ccncc1 [ISONIAZID] and its MIC99 for Mycobacterium kansasii was > 250 µM

For Cc1ccc(-c2nnc(SCc3cc([N+](=O)[O-])cc(C(F)(F)F)c3)s2)cc1 on Mycobacterium kansasii, measured MIC99 was > 32 µM

Kindly consider the entry below.
// MIC99 (Mycobacterium kansasii) for O=[N+]([O-])c1cc(CSc2nnc(-c3ccc(Cl)cc3)s2)cc(C(F)(F)F)c1 = > 32 µM

###

Item-by-item account of MIC99
System: Mycobacterium avium
Experiment: Antimycobacterial activity against Mycobacterium avium CNCTC My 330/88 after 21 days by microdilution method
Format: functional
Conditions: CNCTC My 330/88, 504 h
Answer with a number only, understood to be in µM.

Data point: O=[N+]([O-])c1ccc(CSc2nnc(-c3ccc(Cl)cc3)s2)c([N+](=O)[O-])c1 ; MIC99 = 8

The compound O=[N+]([O-])c1cc(CSc2nnc(-c3cccc(Cl)c3)o2)cc([N+](=O)[O-])c1 showed MIC99 equal to 16

Lab note: O=[N+]([O-])c1cc(CSc2nnc(-c3ccncc3)o2)cc([N+](=O)[O-])c1 gave MIC99 of 62

Note to self: MIC99 recorded for O=[N+]([O-])c1ccc(CSc2nnc(-c3ccncc3)o2)c([N+](=O)[O-])c1 was 62

Further cases:
Looking up O=[N+]([O-])c1cc(CSc2nnc(-c3ccc(O)cc3)o2)cc([N+](=O)[O-])c1 , I found its MIC99 recorded as 62

###

Tested on: Mycobacterium avium
Test: Antimycobacterial activity against Mycobacterium avium CNCTC My 330/88 after 21 days by microdilution method
Type: functional
Settings: CNCTC My 330/88, 504 h
// reported MIC99 per item

Below are worked cases with known answers.
Record Cc1ccc(-c2nnc(SCc3cc([N+](=O)[O-])cc([N+](=O)[O-])c3)s2)cc1 , field MIC99: > 125 µM

Per the records, this molecule ( O=[N+]([O-])c1cc(CSc2nnc(-c3ccncc3)s2)cc([N+](=O)[O-])c1 ) has MIC99 equal to > 125 µM

Shift focus to the following entry.
# MIC99 of O=[N+]([O-])c1ccc(-c2nnc(SCc3cc([N+](=O)[O-])cc(C(F)(F)F)c3)o2)cc1 = > 500 µM
